The values you see were collected from patent US20080234188A1.

Test system: E. faecalis ATCC29212
Assay type: cell-based, Enterococcus faecalis
Where a SMILES comes first, the peptide text is derived from it.
quantity name: MIC E. faecalis ATCC29212

Q: # query: MIC E. faecalis ATCC29212 | item C[C@H](NC(=O)[C@H](C)NC(=O)[C@H](CCCCN)NC(=O)[C@H](CCCCN)NC(=O)[C@@H](N)CCCCN)C(=O)N[C@@H](C)C(=O)N[C@@H](Cc1ccccc1)C(=O)N[C@@H](C)C(=O)N[C@@H](C)C(=O)N[C@@H](Cc1c[nH]c2ccccc12)C(=O)N[C@@H](C)C(=O)N[C@@H](C)C(=O)N[C@@H](Cc1ccccc1)C(=O)N[C@@H](C)C(=O)N[C@@H](CCCCN)C(=O)N[C@@H](CCCCN)C(=O)N[C@@H](CCCCN)C(N)=O [Peptide F17, KKKAAAFAAWAAFAKKK-NH2] (H-KKKAAAFAAWAAFAKKK-NH2; N-terminus assumed) | system: E. faecalis ATCC29212
Result: >32 µM

---

Test system: Staphylococcus epidermidis (C621)
Format: cell-based
Conditions: C621
Where a SMILES comes first, the peptide text is derived from it.
quantity name: MIC S. epidermidis C621 (µM)
The reply should be a number in µM, with the unit left off.

C[C@H](NC(=O)[C@H](C)NC(=O)[C@H](Cc1ccccc1)NC(=O)[C@H](C)NC(=O)[C@H](C)NC(=O)[C@H](Cc1ccccc1)NC(=O)[C@H](C)NC(=O)[C@H](C)NC(=O)[C@H](Cc1ccccc1)NC(=O)[C@H](C)NC(=O)[C@H](C)NC(=O)[C@H](CCCCN)NC(=O)[C@H](CCCCN)NC(=O)[C@H](CCCCN)NC(=O)[C@H](CCCCN)NC(=O)[C@H](CCCCN)NC(=O)[C@@H](N)CCCCN)C(N)=O [Peptide 3F17-6K, KKKKKKAAFAAFAAFAA-NH2] (H-KKKKKKAAFAAFAAFAA-NH2; N-terminus assumed)
8

For the next question, use this compound.
Q: For the compound shown here, C[C@H](NC(=O)[C@H](C)NC(=O)[C@H](C)NC(=O)[C@H](Cc1c[nH]c2ccccc12)NC(=O)[C@H](Cc1ccccc1)NC(=O)[C@H](C)NC(=O)[C@H](C)NC(=O)[C@H](C)NC(=O)[C@H](C)NC(=O)[C@H](CCCCN)NC(=O)[C@H](CCCCN)NC(=O)[C@H](CCCCN)NC(=O)[C@H](CCCCN)NC(=O)[C@H](CCCCN)NC(=O)[C@@H](N)CCCCN)C(=O)N[C@@H](C)C(=O)N[C@@H](Cc1ccccc1)C(N)=O [KAFW, KKKKKKAAAAFWAAAAF-NH2] (H-KKKKKKAAAAFWAAAAF-NH2; N-terminus assumed) , give the reported MIC S. epidermidis C621.
Result: 8

---

Test system: Rabbit RBC
Type: cell-based
Protocol: Erythrocytes from heparinized rabbit or human blood were washed three times with phosphate-buffered saline (PBS; 5 mM phosphate buffer, 0.14 M saline, pH 7.3), and centrifuged at 1000×g for 15 min at 4° C. […] PBS was used as control and 100% lysis was determined in 0.1% Triton X-100. […] 100 μl aliquots of the supernatant were transferred to microtitre plates (Nunc, polystyrene), and the release of hemoglobin was monitored by measurement of the absorbance at 540 nm in a microplate reader. […]
Where a SMILES comes first, the peptide text is derived from it.
quantity name: Rabbit RBC (% lysis) 50 μM

C[C@H](NC(=O)[C@H](C)NC(=O)[C@H](Cc1ccccc1)NC(=O)[C@H](C)NC(=O)[C@H](C)NC(=O)[C@H](Cc1c[nH]c2ccccc12)NC(=O)[C@H](C)NC(=O)[C@H](C)NC(=O)[C@H](Cc1ccccc1)NC(=O)[C@H](C)NC(=O)[C@H](C)NC(=O)[C@H](CCCCN)NC(=O)[C@H](CCCCN)NC(=O)[C@H](CCCCN)NC(=O)[C@H](CCCCN)NC(=O)[C@H](CCCCN)NC(=O)[C@@H](N)CCCCN)C(N)=O [F17(K6), KKKKKKAAFAAWAAFAA-NH2] (H-KKKKKKAAFAAWAAFAA-NH2; N-terminus assumed)
0 % lysis

Q: For the compound shown here, C[C@H](NC(=O)[C@H](C)NC(=O)[C@H](C)NC(=O)[C@H](Cc1c[nH]c2ccccc12)NC(=O)[C@H](Cc1ccccc1)NC(=O)[C@H](C)NC(=O)[C@H](C)NC(=O)[C@H](C)NC(=O)[C@H](C)NC(=O)[C@H](CCCCN)NC(=O)[C@H](CCCCN)NC(=O)[C@H](CCCCN)NC(=O)[C@H](CCCCN)NC(=O)[C@H](CCCCN)NC(=O)[C@@H](N)CCCCN)C(=O)N[C@@H](C)C(=O)N[C@@H](Cc1ccccc1)C(N)=O [KAFW, KKKKKKAAAAFWAAAAF-NH2] (H-KKKKKKAAAAFWAAAAF-NH2; N-terminus assumed) , give the reported Rabbit RBC (% lysis) 50 μM.
Result: 0 % lysis

Q: For the compound shown here, C[C@H](NC(=O)[C@H](C)NC(=O)[C@H](CCCCN)NC(=O)[C@H](CCCCN)NC(=O)[C@@H](N)CCCCN)C(=O)N[C@@H](C)C(=O)N[C@@H](Cc1ccccc1)C(=O)N[C@@H](C)C(=O)N[C@@H](C)C(=O)N[C@@H](Cc1c[nH]c2ccccc12)C(=O)N[C@@H](C)C(=O)N[C@@H](C)C(=O)N[C@@H](Cc1ccccc1)C(=O)N[C@@H](C)C(=O)N[C@@H](CCCCN)C(=O)N[C@@H](CCCCN)C(=O)N[C@@H](CCCCN)C(N)=O [Peptide F17, KKKAAAFAAWAAFAKKK-NH2] (H-KKKAAAFAAWAAFAKKK-NH2; N-terminus assumed) , give the reported Rabbit RBC (% lysis) 50 μM.
Result: 0 % lysis
